Biological target: human Cot catalytic domain (30-397 amino acids) (Homo sapiens, UniProt P41279)
Construct: Purified recombinant human Cot catalytic domain (30-397 amino acids) was purchased from Cama Biosciences; purchased Cama Biosciences (so in the source)
Sequence (P41279 30-397): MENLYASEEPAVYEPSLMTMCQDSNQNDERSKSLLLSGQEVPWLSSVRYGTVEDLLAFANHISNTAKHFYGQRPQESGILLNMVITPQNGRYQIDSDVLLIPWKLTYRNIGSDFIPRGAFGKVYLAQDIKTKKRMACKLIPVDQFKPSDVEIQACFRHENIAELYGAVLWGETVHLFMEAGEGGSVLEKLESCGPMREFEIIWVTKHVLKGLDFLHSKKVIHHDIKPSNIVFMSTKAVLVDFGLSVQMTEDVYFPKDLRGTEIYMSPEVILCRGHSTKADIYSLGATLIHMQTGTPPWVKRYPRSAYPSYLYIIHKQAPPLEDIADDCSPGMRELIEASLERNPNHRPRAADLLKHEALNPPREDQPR
Assay: High Throughput Cot Biochemical Assay (KinEASE TR-FRET)
Conditions: Cot KinEASE TR-FRET (HTRF) biochemical assay, 400 μM ATP; read-out: IC50 HTRF
EXPERIMENTAL READOUT: log10 of IC50 (log10 of the value in nM)
# values: log10(IC50), units nM

CC(C)(C)CNc1c(C#N)cnc2c(C#N)cc(N[C@@H](c3cccc(C(=O)N4CC(F)(F)C4)c3)c3cn(C4CC4)nn3)cc12	0.48

Lookup: So what log10 of IC50 did [2H][C@](Nc1cc(Cl)c2ncc(C#N)c(N[C@H](c3ccccc3)[C@H]3C[C@@H]3C#N)c2c1)(c1ccc(F)cc1)c1cn(C2CC2)nn1 get with human Cot catalytic domain (30-397 amino acids) (Homo sapiens, UniProt P41279)?
Found: 2.97

Lookup: Try the compound [2H][C@@](Nc1cc(Cl)c2ncc(C#N)c(NCC(C)(C)C)c2c1)(c1cn(C2CC2)nn1)c1c(F)cccc1Cl
Found: 1.92

Lookup: And for [2H][C@](Nc1cc(Cl)c2ncc(C#N)c(NC3(CC)CC3)c2c1)(c1ccc(F)cc1)c1cn(C2CC2)nn1 ?
Found: 2.69

Lookup: Same read-out for [2H][C@](Nc1cc(-c2cnc(C)nc2)c2ncc(C#N)c(NCC(C)(C)C)c2c1)(c1ccc(F)cc1)c1cn(C2CC2)nn1 ?
Found: 1.46

Lookup: Also [2H][C@](Nc1cc(Cl)c2ncc(C#N)c(N[C@H](CC)c3ccccc3)c2c1)(c1ccc(F)cc1)c1cn(C2CC2)nn1 , if possible.
Found: 0.78

----------
Target: human Cot catalytic domain (30-397 amino acids) (Homo sapiens)
Construct: Purified recombinant human Cot catalytic domain (30-397 amino acids) was purchased from Cama Biosciences; purchased Cama Biosciences (so in the source)
Assay: High Throughput Cot Biochemical Assay (KinEASE TR-FRET)
Conditions: Cot KinEASE TR-FRET (HTRF) biochemical assay, 400 μM ATP; read-out: IC50 HTRF
EXPERIMENTAL READOUT: log10(IC50) (log10 of the value in nM)
Values are log10 of IC50 in nM.

Worked examples follow.
[2H][C@@](Nc1cc(Cl)c2ncc(C#N)c(NCC(C)(C)C)c2c1)(c1cn(C2CC2)nn1)c1ccccc1Cl	1.11
CNC(=O)c1cccc([C@H](Nc2cc(C#N)c3ncc(C#N)c(NCC(C)(C)C)c3c2)c2cn(C3CC3)nn2)c1	0.30
[2H][C@](Nc1cc(Cl)c2ncc(C#N)c(NCC(C)(C)CC#N)c2c1)(c1ccc(F)cc1)c1cn(C2CC2)nn1	0.78
CC(C)(C)CNc1c(C#N)cnc2c(C#N)cc(N[C@@H](c3cccc(C(N)=O)c3)c3cn(C4CC4)nn3)cc12	0.00
[2H]C(Nc1cc(F)c2ncc(C#N)c(NC(CC#N)c3ccccc3)c2c1)(c1ccc(F)cc1)c1cn(C2CC2)nn1 (stereo in doubt)	0.85

Let's switch to this compound now.
Lookup: Consider the compound shown here: [2H][C@](Nc1cc(Cl)c2ncc(C#N)c(N[C@H](C)C(C)(C)C)c2c1)(c1ccc(F)cc1)c1cn(C2CC2)nn1 What is its recorded log10(IC50)?
Found: 1.20
